SYSTEM NAME: Solute carrier family 12 member 5 (Homo sapiens, UniProt Q9H2X9)
Sequence (Q9H2X9 whole entry): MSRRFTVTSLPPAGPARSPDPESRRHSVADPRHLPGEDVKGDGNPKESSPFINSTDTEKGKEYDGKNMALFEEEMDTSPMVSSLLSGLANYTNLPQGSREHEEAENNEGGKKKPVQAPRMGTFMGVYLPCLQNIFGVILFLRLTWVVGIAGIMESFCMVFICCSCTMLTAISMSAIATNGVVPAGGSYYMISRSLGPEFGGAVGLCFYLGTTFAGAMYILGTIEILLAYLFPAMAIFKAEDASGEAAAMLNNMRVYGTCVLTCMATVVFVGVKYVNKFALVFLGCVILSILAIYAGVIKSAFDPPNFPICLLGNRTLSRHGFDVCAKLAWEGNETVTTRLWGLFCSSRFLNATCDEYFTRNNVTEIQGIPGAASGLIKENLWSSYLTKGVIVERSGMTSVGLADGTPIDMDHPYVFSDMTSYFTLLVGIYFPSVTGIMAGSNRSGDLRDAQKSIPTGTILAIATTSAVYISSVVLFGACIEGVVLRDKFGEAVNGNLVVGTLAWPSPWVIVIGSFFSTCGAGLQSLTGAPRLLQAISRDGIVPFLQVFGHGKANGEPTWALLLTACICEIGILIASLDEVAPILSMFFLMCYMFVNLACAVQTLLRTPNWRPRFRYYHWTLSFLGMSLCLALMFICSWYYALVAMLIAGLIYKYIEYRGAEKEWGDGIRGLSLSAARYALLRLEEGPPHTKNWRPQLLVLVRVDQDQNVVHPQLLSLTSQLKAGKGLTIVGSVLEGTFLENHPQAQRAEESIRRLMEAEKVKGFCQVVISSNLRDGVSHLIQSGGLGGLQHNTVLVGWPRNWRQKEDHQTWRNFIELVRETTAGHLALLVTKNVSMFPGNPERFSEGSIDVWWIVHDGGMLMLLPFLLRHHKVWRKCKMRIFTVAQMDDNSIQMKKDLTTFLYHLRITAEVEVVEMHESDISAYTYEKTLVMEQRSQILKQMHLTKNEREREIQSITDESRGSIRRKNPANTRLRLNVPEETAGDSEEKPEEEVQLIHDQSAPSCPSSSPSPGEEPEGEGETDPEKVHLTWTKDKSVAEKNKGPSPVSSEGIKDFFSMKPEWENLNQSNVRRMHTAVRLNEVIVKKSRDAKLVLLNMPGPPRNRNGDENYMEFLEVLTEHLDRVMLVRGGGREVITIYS
ASSAY METHOD TEXT: concentration-response of KCC2 transport modulators – cell-based, HEK293 KCC2, FluoZin-2 fluorescence, dose response (AID 1736)
Grouping key: EC50. Bins: lo = under 2 µM, med = from 2 µM up to 7 µM, hi = 7 µM and over

{"MOLECULE": "O=C(CC(Cc1ccccc1)c1ccco1)NC1CCCCC1 (configuration not stated) [MLS000556612]", "ASSIGNED LABEL": "med"}
{"MOLECULE": "Sc1nnc(COc2ccc(Cl)cc2)o1", "ASSIGNED LABEL": "med"}
{"MOLECULE": "Cc1cccc(-c2nc(C[S+]([O-])CC(=O)N3CCc4ccccc4C3)c(C)o2)c1 (configuration not stated)", "ASSIGNED LABEL": "med"}
{"MOLECULE": "O=C(NN=Cc1ccc(OCc2ccccc2)cc1)c1cc[n+](Cc2ccccc2)cc1", "ASSIGNED LABEL": "hi"}
{"MOLECULE": "CCc1ccc(Nc2nnc(SCc3cc(=O)n4ccsc4n3)s2)cc1", "ASSIGNED LABEL": "lo"}
{"MOLECULE": "O=C(NCCc1csc(-c2ccccc2)n1)c1cccs1 [MLS000102716]", "ASSIGNED LABEL": "hi"}
{"MOLECULE": "CCc1ccc(C(=O)COC(=O)c2cc([N+](=O)[O-])ccc2NCCO)cc1", "ASSIGNED LABEL": "med"}
{"MOLECULE": "CCCn1c(N)c(C(=O)CSc2nnc(Cc3ccccc3)o2)c(=O)n(C)c1=O", "ASSIGNED LABEL": "lo"}
{"MOLECULE": "CC1Cc2ccccc2N1C(=O)c1ccc(N2CCCCC2)c([N+](=O)[O-])c1 (configuration not stated)", "ASSIGNED LABEL": "lo"}
{"MOLECULE": "COc1ccccc1NC(=S)NNC1=c2cc(Br)ccc2=NC1=O [MLS000778253]", "ASSIGNED LABEL": "lo"}
{"MOLECULE": "Cc1ccc2[nH]c(=O)c(CN(CCc3ccccc3)Cc3nnnn3CC3CCCO3)cc2c1 (configuration not stated) [SMR000003177]", "ASSIGNED LABEL": "hi"}
{"MOLECULE": "NC1=NC[C@@H](Cc2ccc(O)cc2)N1CCc1cc(C(F)(F)F)cc(C(F)(F)F)c1", "ASSIGNED LABEL": "hi"}

* * *

Below, each entry is listed with its recorded pEC50.
SYSTEM NAME: Solute carrier family 12 member 5 (Homo sapiens, UniProt Q9H2X9)
ASSAY METHOD TEXT: concentration-response of KCC2 transport modulators – cell-based, HEK293 KCC2, FluoZin-2 fluorescence, dose response (AID 1736)
pEC50: −log10 of the molar value.

{"COMPOUND": "COc1cc(OC)c(C2=NOC(C(=O)NCCc3ccccc3)C2)cc1Cl (centres undefined)", "pEC50": 5.20}
{"COMPOUND": "CCOc1[nH]n(-c2ccccc2)c(=O)c1C=Nc1ccc(F)cc1F", "pEC50": 7.49}
{"COMPOUND": "O=C(c1cc(COc2c(F)cccc2F)on1)N1CCC(c2ccncc2)CC1", "pEC50": 4.91}
{"COMPOUND": "CCn1nnnc1SCC(=O)Nc1nc(-c2cccs2)cs1", "pEC50": 5.71}
{"COMPOUND": "S=C(NCc1cccnc1)Nc1ccc(Oc2ccccc2)cc1", "pEC50": 5.28}
{"COMPOUND": "O=C(CSc1ncccc1-c1nc2ccccc2[nH]1)N1CCN(c2ccccc2F)CC1", "pEC50": 5.02}
{"COMPOUND": "Cn1nccc1C(=O)OCC(=O)Nc1nc(-c2ccccc2)cs1", "pEC50": 4.96}
{"COMPOUND": "CC(=O)NC(C)C(=O)OCC(=O)c1ccc(-c2ccccc2)cc1 (centres undefined)", "pEC50": 5.10}
{"COMPOUND": "Cc1nonc1NC(=O)CSc1ccc(-c2ccccc2)nn1", "pEC50": 5.95}
